# target_of_assay: Ribosomal protein S6 kinase beta-1 (Homo sapiens) (UniProt P23443)
# Sequence (P23443 whole entry, looked up): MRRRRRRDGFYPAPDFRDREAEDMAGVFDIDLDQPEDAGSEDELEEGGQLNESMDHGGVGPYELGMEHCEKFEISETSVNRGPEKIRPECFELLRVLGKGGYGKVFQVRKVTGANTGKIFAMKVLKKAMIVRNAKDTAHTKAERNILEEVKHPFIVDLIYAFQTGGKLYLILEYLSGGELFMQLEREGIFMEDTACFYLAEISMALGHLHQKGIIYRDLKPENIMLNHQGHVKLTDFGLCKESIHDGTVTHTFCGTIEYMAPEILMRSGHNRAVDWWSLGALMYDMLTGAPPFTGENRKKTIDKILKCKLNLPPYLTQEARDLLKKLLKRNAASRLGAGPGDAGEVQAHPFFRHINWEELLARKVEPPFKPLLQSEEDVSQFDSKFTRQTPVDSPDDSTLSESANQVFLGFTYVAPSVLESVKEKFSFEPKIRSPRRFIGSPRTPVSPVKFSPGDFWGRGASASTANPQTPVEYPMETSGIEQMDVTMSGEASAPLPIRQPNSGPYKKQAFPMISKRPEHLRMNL
# condition_context: at 1 µM
outcome_measure: residual activity (%)
Entry rule: numbers only, all in %.

The examples below pair each entry with its known result.
molecular_string=Cc1nc(-c2ccccc2)c(-c2ccncc2)o1 outcome_measure="residual activity" quantitative_result=83
molecular_string=C[C@@H](N)[C@H]1CC[C@H](C(=O)Nc2ccncc2)CC1 outcome_measure="residual activity" quantitative_result=101
molecular_string=Nc1cccc(-c2cc3c(Oc4cccc(O)c4)ncnc3[nH]2)c1 outcome_measure="residual activity" quantitative_result=71
molecular_string=Cc1ccc(S(=O)(=O)/C=C/C#N)cc1 outcome_measure="residual activity" quantitative_result=133
molecular_string=CCN(CC)CCCCN1c2ccccc2Oc2ccc(Cl)cc21 outcome_measure="residual activity" quantitative_result=79
molecular_string=Cn1cnc2cc3c(Nc4cccc(Br)c4)ncnc3cc21 outcome_measure="residual activity" quantitative_result=95
molecular_string=O=C1Nc2cc(Br)ccc2/C1=C1/Nc2ccccc2/C1=N\O outcome_measure="residual activity" quantitative_result=30
molecular_string=COc1cc2ncnc(Nc3ccc(NC(=O)c4ccccc4)cc3)c2cc1OC outcome_measure="residual activity" quantitative_result=67
molecular_string=COc1ccc(C(=O)Nc2sc3c(c2C(N)=O)CCCC3)cc1OC outcome_measure="residual activity" quantitative_result=106
molecular_string=c1ccc(-c2n[nH]cc2-c2ccnc3ccccc23)nc1 outcome_measure="residual activity" quantitative_result=72

Field residual activity (entry O=c1c2ccccc2[nH]c(=S)n1CCN1CCC(=C(c2ccc(F)cc2)c2ccc(F)cc2)CC1 ) reads 79

Field residual activity (entry Cc1cccc(-c2[nH]c(C(C)(C)C)nc2-c2ccc3c(c2)OCO3)n1 ) reads 93

Field residual activity (entry O=C1NC(=O)c2c1c1c3ccccc3[nH]c1c1[nH]c3cc(Br)ccc3c21 ) reads 92

Field residual activity (entry Oc1n[nH]c2nnc(-c3c(-c4ccccc4)nn4ccccc34)cc12 ) reads 106

Field residual activity (entry Oc1ccc(Nc2nc(-c3ccc(Cl)cc3)cs2)cc1 ) reads 119

Field residual activity (entry O=C(O)c1ccc2c3c1cccc3c(=O)n1c3ccccc3nc21 ) reads 89

Field residual activity (entry O=C(Nc1cccc(Nc2cc(Nc3cccc(C(F)(F)F)c3)ncn2)c1)C1CC1 ) reads 92

Field residual activity (entry CNc1cc2c(Nc3cccc(Br)c3)ncnc2cn1 ) reads 126

Field residual activity (entry CO[C@H]1[C@@H](OC)C[C@H](C)[C@@H](OC)C2=CC(=O)C=C(NC(=O)/C(C)=C/C=C/[C@H](OC)[C@@H](OC(N)=O)/C(C)=C/[C@@H]1C)C2=O ) reads 75

Field residual activity (entry c1ccc2c(-c3ccncc3)c[nH]c2c1 ) reads 53

Field residual activity (entry CCN(CC)C(=O)c1ccc(Nc2nc(OCC3CCCCC3)c3nc[nH]c3n2)cc1 ) reads 58
